I'd be grateful if you could share measured kon for these entries.
Target: ACE2 (human, UniProt Q9BYF1 18-740)
Sequence (Q9BYF1 18-740 limits assumed): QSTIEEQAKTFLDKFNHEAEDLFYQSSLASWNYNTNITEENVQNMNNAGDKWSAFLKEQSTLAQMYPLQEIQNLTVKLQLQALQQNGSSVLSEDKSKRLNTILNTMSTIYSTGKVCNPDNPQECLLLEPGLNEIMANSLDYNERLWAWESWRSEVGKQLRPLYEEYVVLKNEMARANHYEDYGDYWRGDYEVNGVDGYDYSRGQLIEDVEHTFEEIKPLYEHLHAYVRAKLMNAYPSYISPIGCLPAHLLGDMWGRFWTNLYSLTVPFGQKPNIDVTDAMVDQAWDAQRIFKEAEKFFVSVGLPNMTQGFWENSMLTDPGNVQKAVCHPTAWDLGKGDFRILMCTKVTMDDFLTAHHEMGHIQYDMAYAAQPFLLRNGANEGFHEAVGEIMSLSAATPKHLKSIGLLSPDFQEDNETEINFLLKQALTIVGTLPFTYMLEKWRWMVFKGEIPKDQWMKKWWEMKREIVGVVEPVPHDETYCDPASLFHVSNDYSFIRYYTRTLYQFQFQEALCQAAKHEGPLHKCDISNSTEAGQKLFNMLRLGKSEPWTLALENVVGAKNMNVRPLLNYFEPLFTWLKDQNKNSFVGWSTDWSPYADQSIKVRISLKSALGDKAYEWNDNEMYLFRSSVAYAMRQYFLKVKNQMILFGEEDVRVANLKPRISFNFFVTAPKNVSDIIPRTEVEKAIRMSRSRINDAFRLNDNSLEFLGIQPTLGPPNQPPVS
Enter the number, and then the unit.

Q. // returns reported kon for input ACE2 variant antibody 4-25 (VHH) VHH: EVQLVESGGGLVQPGGSLRLSCAASGGTFSRYAMGWFRQAPGKEREWVSAVDSGGSTYYADSVKGRFTISADNSKNTAYLQMNSLKPEDTAVYYCAASPSLRSAWQWGQGTLVTVSS
A. 78700 M⁻¹ s⁻¹

Q. Similarly, ACE2 variant antibody 3-8 (antibody, V domains shown) VH: EVQLLESGGGLVQPGGSLRLSCAASGFTFRSHAMSWVRQAPGKGLEWVSSISGGGASTYYADSVKGRFTISRDNSKNTLYLQMNSLRAEDTAVYYCARVKYLTTSSGWPRPYFDNWGQGTLVTVSS VL: DIQMTQSPSSLSASVGDRVTITCRASQSIGKYLNWYQQKPGKAPKLLIYASSTLQRGVPSRFSGSGSGTDFTLTISSLQPEDFATYYCQQSLSTPFTFGQGTKVEIK ?
A. 114000 M⁻¹ s⁻¹

These measurements were taken from patent US20210355194A1.
